Provenance of the data: the MegaScale stability set (Tsuboyama et al. 2023)

B1: 1ZHC (parent)
chain: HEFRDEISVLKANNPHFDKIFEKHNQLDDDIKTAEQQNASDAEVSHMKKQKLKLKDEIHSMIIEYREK

# Variants of: B1
# protocol-summary: folding stability dG (cDNA display proteolysis); higher = more stable
# test-context: PBS, room temperature
measured-parameter: folding stability dG (kcal/mol)
The figure you give is taken to be in kcal/mol; do not add the unit.

Given the variant `HEFRDWISVLKANNPHFDKIFEKHNQLDDDIKTAEQQNASDAEVSHMKKQKLKLKDEIHSMIIEYREK` , what is its reported folding stability dG?
1.55

Given the variant `HEFRDSISVLKANNPHFDKIFEKHNQLDDDIKTAEQQNASDAEVSHMKKQKLKLKDEIHSMIIEYREK` , what is its reported folding stability dG?
0.271

Given the variant `HEFRDEISVLKANNPHFDKIFEKHNQLDDDIKTAEQWNASDAEVSHMKKQKLKLKDEIHSMIIEYREK` , what is its reported folding stability dG?
0.426

Given the variant `HEFRDEISVLKANNPHFDKIFEKHNQLDDDIKLAEQQNASDAEVSHMKKQKLKLKDEIHSMIIEYREK` , what is its reported folding stability dG?
1.14

Given the variant `HEFRDEISVLKAVNPHFDKIFEKHNQLDDDIKTAEQQNASDAEVSHMKKQKLKLKDEIHSMIIEYREK` , what is its reported folding stability dG?
0.458

Given the variant `HEFRDEISVLKANNPHFDKIFEKHNQLDDDIKTAEQQNASDAEVSHMKKQKLKLKDEIHSMIIEVREK` , what is its reported folding stability dG?
-0.888

Given the variant `HEFRDEILVLKANNPHFDKIFEKHNQLDDDIKTAEQQNASDAEVSHMKKQKLKLKDEIHSMIIEYREK` , what is its reported folding stability dG?
1.21

Given the variant `HEFRDEISVLKANNPHFDKIFEKHNQLDDDIKTAEQQNASDAEVSHMKKQKFKLKDEIHSMIIEYREK` , what is its reported folding stability dG?
0.588

Given the variant `HEFRDEISVLKANNPHFDKIFEKHNQLDDDIKTAEQQNASDAEVSHMKKQKLKLKAEIHSMIIEYREK` , what is its reported folding stability dG?
1.27

Given the variant `HEFRDEISVLKANNPHEDKIFEKHNQLDDDIKTAEQQNASDAEVSHMKKQKLKLKDEIHSMIIEYREK` , what is its reported folding stability dG?
-0.562

Given the variant `HEFRDEISVLKANNPHFDKIFEKHNQLDDDIKTAEQQNASDAEVHHMKKQKLKLKDEIHSMIIEYREK` , what is its reported folding stability dG?
0.845
